# assayedTarget: UniProtKB P56524
# Sequence (P56524 whole entry): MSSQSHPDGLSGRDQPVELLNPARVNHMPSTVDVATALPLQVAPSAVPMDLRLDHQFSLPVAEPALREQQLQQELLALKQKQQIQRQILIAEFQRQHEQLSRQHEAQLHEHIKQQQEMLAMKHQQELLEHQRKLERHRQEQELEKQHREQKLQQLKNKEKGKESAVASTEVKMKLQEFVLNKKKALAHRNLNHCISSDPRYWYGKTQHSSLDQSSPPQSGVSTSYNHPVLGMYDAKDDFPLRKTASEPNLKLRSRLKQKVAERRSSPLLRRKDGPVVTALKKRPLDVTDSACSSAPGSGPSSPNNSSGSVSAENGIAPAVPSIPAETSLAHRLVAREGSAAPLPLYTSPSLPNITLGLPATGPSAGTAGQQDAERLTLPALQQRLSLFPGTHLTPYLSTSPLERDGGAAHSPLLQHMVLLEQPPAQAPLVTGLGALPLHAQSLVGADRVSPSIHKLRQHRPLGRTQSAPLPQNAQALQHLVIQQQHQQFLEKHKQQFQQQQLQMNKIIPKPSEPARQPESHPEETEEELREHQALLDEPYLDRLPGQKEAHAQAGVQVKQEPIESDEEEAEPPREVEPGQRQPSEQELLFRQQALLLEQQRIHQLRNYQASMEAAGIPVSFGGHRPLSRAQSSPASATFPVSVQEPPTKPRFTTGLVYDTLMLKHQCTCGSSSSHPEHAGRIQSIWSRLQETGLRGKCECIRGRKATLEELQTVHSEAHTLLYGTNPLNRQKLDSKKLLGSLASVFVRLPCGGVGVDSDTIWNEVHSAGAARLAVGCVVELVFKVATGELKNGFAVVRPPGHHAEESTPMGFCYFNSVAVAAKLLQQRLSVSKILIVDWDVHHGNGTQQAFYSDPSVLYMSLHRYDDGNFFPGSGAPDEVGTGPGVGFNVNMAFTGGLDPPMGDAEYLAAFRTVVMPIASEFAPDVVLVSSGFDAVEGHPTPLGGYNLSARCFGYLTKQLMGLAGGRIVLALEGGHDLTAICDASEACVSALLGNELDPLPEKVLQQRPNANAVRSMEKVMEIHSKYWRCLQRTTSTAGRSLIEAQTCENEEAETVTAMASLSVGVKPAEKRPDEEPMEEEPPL
# procedureSummary: Inhibition of human recombinant HDAC4 after 1 hr by luminescence assay
Here the recorded pIC50 is given for each entry.
Quick note: pIC50 values are minus log10 of concentrations in mol/L.

Study these solved cases before continuing.
{"columns": ["recordSmiles", "assayedTarget", "pIC50"],
 "data": [
  ["C/C=C1\\NC(=O)[C@H]2CSSCC/C=C/[C@H](CC(=O)N[C@H](C(C)C)C(=O)N2)OC(=O)[C@H](C(C)C)NC1=O", "UniProtKB P56524", 5.06],
  ["CCCC[C@H]1NC(=O)C[C@H]2/C=C/CCSSC[C@@H](NC1=O)C(=O)N[C@H](CC(C)C)[C@@H](O)CC(=O)O2", "UniProtKB P56524", 3.88]
]}

Query block: What value of pIC50 has been reported for the following compound? CSCC[C@H]1NC(=O)C[C@H]2/C=C/CCSSC[C@@H](NC1=O)C(=O)N[C@H](C(C)C)[C@@H](O)CC(=O)O2
Result block: 4.42

Query block: What value of pIC50 has been reported for the following compound? CCCC[C@H]1NC(=O)C[C@H]2/C=C/CCSSC[C@@H](NC1=O)C(=O)N[C@H](C(C)C)[C@@H](O)CC(=O)O2
Result block: 4.33
